testDescription: Human liver microsome stability
Assay type: in vitro ADME
reportedConditions: human liver microsomes, pH 7.4
readout: microsomal CLint at 0.99 µM (µL/min/mg)

{"structureAsSmiles": "CNS(=O)(=O)Nc1cccc(Cc2cc(C(N)=O)c(Nc3ccc(I)cc3F)n(C)c2=O)c1F", "readout": "microsomal CLint at 0.99 µM", "measuredNumber": 97}
{"structureAsSmiles": "NC(=O)c1cc(Cc2ccnc(NS(=O)(=O)NC3CC3)c2F)c(F)c(F)c1Nc1ccc(I)cc1F", "readout": "microsomal CLint at 0.99 µM", "measuredNumber": 10}
{"structureAsSmiles": "CCCS(=O)(=O)Nc1cccc(Cc2cc(C(N)=O)c(Nc3ccc(I)cc3F)c(F)c2F)c1F", "readout": "microsomal CLint at 0.99 µM", "measuredNumber": 29}
{"structureAsSmiles": "CCS(=O)(=O)Nc1cccc(Cc2cc(C(N)=O)c(Nc3ccc(I)cc3F)c(F)c2F)c1", "readout": "microsomal CLint at 0.99 µM", "measuredNumber": 15}
